Just for reference, patent US20240084003A1 is where these values come from.

# TARGET_OR_SYSTEM: T1, human CD22, full length, on CHO-K1-human CD22 2C4 cells (human, UniProt P20273 20-847)
# T1 construct: Full-length human CD22 (NCBI NP_001762.2) stably transfected into CHO-K1
# T1 sequence: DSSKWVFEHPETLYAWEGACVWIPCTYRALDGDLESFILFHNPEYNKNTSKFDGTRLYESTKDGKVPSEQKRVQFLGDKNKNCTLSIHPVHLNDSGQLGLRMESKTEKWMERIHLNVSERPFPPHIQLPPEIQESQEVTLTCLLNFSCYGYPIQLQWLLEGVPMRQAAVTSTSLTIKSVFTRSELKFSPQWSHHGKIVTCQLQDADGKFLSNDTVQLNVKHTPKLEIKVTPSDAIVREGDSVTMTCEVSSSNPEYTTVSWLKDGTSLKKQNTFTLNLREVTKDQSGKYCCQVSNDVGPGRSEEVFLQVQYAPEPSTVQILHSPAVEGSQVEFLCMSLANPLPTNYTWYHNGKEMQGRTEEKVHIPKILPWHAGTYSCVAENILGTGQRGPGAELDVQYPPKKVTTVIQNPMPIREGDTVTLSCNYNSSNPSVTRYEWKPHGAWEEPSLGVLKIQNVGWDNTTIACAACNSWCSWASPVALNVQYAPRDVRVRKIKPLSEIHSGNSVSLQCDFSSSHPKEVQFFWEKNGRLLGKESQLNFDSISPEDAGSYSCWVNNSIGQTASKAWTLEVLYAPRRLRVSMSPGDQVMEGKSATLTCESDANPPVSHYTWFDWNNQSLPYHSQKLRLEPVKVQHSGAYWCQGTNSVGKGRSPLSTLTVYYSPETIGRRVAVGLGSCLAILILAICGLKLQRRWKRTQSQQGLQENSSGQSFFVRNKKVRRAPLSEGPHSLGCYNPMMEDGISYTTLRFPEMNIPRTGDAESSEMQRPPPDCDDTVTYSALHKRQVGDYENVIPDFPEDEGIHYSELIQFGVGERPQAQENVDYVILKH
# PROTOCOL: FACS, CHO-K1-human CD22 2C4 cells
ATTRIBUTE_MEASURED: Maximum mean fluorescence intensity (MFI)
# number only, unit MFI dropped from output

F2.343.16 human-murine chimeric antibody (antibody, human IgG1, lambda, V domains shown, Chimeric, human IgG1 / lambda; VL tied by name) VH: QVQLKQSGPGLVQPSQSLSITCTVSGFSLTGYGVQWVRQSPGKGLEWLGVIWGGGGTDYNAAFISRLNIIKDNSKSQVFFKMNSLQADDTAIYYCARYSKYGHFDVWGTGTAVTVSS VL: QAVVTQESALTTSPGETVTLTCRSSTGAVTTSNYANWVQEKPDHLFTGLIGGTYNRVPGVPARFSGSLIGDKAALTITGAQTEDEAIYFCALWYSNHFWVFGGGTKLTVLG = 50200
HA22-hIgG1 (antibody, V domains shown) VH: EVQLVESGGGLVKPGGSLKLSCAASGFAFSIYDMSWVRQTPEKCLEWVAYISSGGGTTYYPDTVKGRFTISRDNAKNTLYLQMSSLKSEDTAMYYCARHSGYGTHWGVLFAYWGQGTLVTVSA VL: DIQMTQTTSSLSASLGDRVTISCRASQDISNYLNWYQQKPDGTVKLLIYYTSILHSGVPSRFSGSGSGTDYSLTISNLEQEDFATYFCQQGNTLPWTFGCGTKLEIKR = 43400
F2.42.9 human-murine chimeric antibody (antibody, human IgG1, lambda, V domains shown, Chimeric, human IgG1 / lambda; VL tied by name) VH: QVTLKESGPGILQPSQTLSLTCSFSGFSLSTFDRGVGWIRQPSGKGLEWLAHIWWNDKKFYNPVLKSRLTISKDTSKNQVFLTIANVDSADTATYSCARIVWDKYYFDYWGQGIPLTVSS VL: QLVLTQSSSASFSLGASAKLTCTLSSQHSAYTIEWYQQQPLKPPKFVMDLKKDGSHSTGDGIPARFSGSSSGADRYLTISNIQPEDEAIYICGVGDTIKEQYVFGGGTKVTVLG = 41000
F2.99.1 human-murine chimeric antibody (antibody, human IgG1, lambda, V domains shown, Chimeric, human IgG1 / lambda; VL tied by name) VH: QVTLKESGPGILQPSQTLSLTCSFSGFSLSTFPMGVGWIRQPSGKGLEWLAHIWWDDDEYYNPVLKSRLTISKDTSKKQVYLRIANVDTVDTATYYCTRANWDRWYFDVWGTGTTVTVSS VL: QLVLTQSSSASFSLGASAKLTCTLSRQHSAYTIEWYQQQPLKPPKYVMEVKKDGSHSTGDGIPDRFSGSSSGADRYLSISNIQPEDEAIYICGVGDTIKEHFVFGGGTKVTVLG = 44800
F2.104.10 human-murine chimeric antibody (antibody, human IgG1, lambda, V domains shown, Chimeric, human IgG1 / lambda) VH: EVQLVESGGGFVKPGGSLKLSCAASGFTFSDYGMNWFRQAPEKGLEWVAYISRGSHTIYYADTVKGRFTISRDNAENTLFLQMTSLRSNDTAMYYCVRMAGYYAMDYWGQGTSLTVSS VL: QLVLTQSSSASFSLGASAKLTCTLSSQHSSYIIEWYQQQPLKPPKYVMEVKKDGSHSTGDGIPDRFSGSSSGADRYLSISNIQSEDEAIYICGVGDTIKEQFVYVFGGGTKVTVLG = 40600

Q: Bench note: what Maximum mean fluorescence intensity did F2.205.9 human-murine chimeric antibody (antibody, human IgG1, lambda, V domains shown, Chimeric, human IgG1 / lambda; VL tied by name) VH: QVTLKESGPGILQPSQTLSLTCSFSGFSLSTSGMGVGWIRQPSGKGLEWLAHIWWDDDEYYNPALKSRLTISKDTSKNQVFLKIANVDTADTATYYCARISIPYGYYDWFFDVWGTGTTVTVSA VL: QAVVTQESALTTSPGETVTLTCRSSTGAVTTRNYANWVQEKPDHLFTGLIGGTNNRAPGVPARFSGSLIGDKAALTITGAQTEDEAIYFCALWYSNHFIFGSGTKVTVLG show?
Result: 40200

Q: Reported Maximum mean fluorescence intensity for F2.127.11 human-murine chimeric antibody (antibody, human IgG1, lambda, V domains shown, Chimeric, human IgG1 / lambda; VL tied by name) VH: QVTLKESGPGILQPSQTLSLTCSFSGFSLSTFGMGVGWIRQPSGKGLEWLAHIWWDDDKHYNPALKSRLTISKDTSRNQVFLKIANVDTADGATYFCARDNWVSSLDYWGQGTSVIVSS VL: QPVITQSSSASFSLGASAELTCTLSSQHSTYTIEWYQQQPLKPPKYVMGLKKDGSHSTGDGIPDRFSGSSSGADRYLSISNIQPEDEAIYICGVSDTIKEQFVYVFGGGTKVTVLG : what is it?
Result: 58500

Q: // returns reported Maximum mean fluorescence intensity for input F2.180.16 human-murine chimeric antibody (antibody, human IgG1, lambda, V domains shown, Chimeric, human IgG1 / lambda) VH: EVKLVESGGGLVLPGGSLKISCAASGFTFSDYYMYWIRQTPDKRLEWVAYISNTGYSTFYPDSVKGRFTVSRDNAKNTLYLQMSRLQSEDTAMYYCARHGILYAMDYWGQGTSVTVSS VL: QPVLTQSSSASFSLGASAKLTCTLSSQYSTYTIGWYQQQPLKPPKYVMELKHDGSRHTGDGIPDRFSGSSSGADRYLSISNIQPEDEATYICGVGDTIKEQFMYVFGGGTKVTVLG
Result: 34400

Q: Report Maximum mean fluorescence intensity for F2.55.1 human-murine chimeric antibody (antibody, human IgG1, lambda, V domains shown, Chimeric, human IgG1 / lambda; VL tied by name) VH: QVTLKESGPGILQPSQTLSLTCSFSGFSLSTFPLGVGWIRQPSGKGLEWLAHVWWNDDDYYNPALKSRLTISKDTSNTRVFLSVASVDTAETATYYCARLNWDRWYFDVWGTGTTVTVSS VL: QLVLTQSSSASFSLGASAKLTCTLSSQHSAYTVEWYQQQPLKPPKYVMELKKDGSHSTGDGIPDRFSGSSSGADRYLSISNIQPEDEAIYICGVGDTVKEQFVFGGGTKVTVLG please.
Result: 42000

Q: Name the reported Maximum mean fluorescence intensity value associated with the binder F2.173.9 human-murine chimeric antibody (antibody, human IgG1, lambda, V domains shown, Chimeric, human IgG1 / lambda) VH: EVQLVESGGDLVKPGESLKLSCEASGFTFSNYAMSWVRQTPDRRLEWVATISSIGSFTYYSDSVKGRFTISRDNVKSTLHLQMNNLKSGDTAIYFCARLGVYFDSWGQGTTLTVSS VL: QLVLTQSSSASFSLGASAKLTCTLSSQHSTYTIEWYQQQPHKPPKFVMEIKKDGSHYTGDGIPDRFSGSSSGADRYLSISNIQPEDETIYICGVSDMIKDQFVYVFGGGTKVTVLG
Result: 40300
